Tested on: TT cells (RET C634W)
Test: Cell growth inhibitory activity against thyroid medullary cancer cell line TT (CellTiter-Glo)
Type: cell-based
Conditions: Homo sapiens, 120 h, read-out: cell growth inhibition IC50 value, TT cells
Description: Cell growth inhibitory activity was evaluated using a thyroid medullary cancer cell line TT (American Type Culture Collection) with a RET kinase active mutation (C634W). The TT cells were seeded into a 96-well plate at a concentration of 5,000 cells/well in F-12K Nutrient Mixture (Life Technologies Corporation) containing 10% FBS and cultured overnight at 37° C. in the presence of 5% CO2. […] The IC50 value was determined from the obtained values by the logistic regression method.
recorded_metric: IC50 (nM)
Give just the number in nM; leave the unit off.

Identify measured IC50 associated with CCc1cc2c(cc1N1CCC(N3CCOCC3)CC1)C(C)(C)c1[nH]c3cc(C#N)ccc3c1C2=O
190
